Origin of values: patent EP4813463A2

Test: Microsomal metabolic stability assay
Assay type: in vitro ADME
Conditions: human, liver microsomes, pH 7.4; 0.5 mg/mL microsomal protein, 1 µM test article, 2 mM NADPH; read-out: Human LM T1/2
Protocol: Microsomes were pre-incubated with test compound or control compounds for 5 min at 37°C in 100 mM potassium phosphate buffer, pH 7.4, 1.0 mM EDTA. […] 50 µL of supernatant are taken into 96-well assay plates pre-added with 50 µL ultrapure water, and then analyzed by LC/MS/MS. Concentrations of test articles, control compounds in the samples were determined by using LC/MS/MS method. […] The CLint of microsomes was calculated using the formula: CLint (mic)=0.693/T1/2 /mg microsome protein per mL. […]
VALUE KIND: half-life at 1 µM (h)
Report only the number, with the unit h understood.

| MOLECULE | UOM | VALUE REPORTED |
| --- | --- | --- |
| [2H]C([2H])([2H])NC(=O)c1cnc(NC(=O)[C@@H]2C[C@@H]2F)cc1Nc1cnn2ccc(C#N)c(OC)c12 | h | 1.05 |
| [2H]C([2H])([2H])O[C@@H](c1ccc2c(c(Nc3cc(NC(=O)C4CC4)ncc3C(=O)OC)nn2C)c1OC)C(F)(F)F [Example 50B] | h | 2.11 |
| [2H]C([2H])([2H])NC(=O)c1cnc(NC(=O)C2CC2)cc1Nc1cnn2ccc(CO)c(OC)c12 | h | 5.13 |

Now for the molecule whose half-life at 1 µM we want.
What does the data say about its half-life at 1 µM? Entry: [2H]C([2H])([2H])O[C@@H](c1ccc2c(c(Nc3cc(NC(=O)C4CC4)ncc3C(=O)OC)nn2C([2H])([2H])[2H])c1OC)C(F)(F)F [Example 53B]
1.75

----------
biological target: JAK1-JH2 domain (Homo sapiens, UniProt P23458); construct: JAK1-JH2 domain or TYK2-JH2 domain enzyme in assay buffer; experiment: Binding activity test for JH2 domain of JAK1 (Tb-antibody/tracer FRET); conditions: JH2 domain enzyme; 60 min at 25°C, then 4°C overnight; read-out: JAK1 JH2 Binding IC50
Sequence (P23458 583-855 limits assumed): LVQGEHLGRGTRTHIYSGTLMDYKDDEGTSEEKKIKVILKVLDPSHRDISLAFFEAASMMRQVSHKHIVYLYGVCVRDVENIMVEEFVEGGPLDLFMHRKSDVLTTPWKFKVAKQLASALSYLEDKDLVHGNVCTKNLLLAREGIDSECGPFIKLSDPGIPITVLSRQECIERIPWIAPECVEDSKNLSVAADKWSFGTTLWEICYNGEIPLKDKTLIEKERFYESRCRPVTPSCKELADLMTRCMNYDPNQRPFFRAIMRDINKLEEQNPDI
Lab note: anything with IC50 below 0.02 µM is marked label 1; values at 0.02 µM or higher are marked label 0.

| COMPOUND | SYSTEM NAME | QUALITATIVE LABEL |
| --- | --- | --- |
| [2H]C([2H])([2H])NC(=O)c1cnc(NC(=O)C2CC2)nc1Nc1cnn2ccc(Cl)c(OC)c12 [Example 4] | JAK1-JH2 domain (Homo sapiens, UniProt P23458) | label 1 |
| COC(=O)c1cnc(NC(=O)C2CC2)cc1Nc1nsc2ccc(C(OC)C(F)(F)F)c(OC)c12 (single isomer, unassigned) [Example 67A] | JAK1-JH2 domain (Homo sapiens, UniProt P23458) | label 1 |
| [2H]C([2H])([2H])NC(=O)c1cnc(NC(=O)[C@@H]2C[C@@H]2F)cc1Nc1cnn2ccc(C(F)(F)F)c(OC)c12 [Example 11] | JAK1-JH2 domain (Homo sapiens, UniProt P23458) | label 1 |

Does this compound meet the criterion IC50 < 0.02 µM? COC(=O)c1cnc(NC(=O)C2CC2)cc1Nc1nn(C)c2ccc(C(O)C(F)(F)F)c(OC)c12 (centres unmarked) [Example 48]
label 0

Does this compound meet the criterion IC50 < 0.02 µM? [2H]C([2H])([2H])NC(=O)c1cnc(NC(=O)C2CC2)cc1Nc1nn(C)c2ccc([C@@H](OC([2H])([2H])[2H])C(F)(F)F)c(OC)c12 [Example 55B]
label 1

Does this compound meet the criterion IC50 < 0.02 µM? [2H]C([2H])([2H])NC(=O)c1cnc(NC(=O)C2(F)CC2)cc1Nc1cnn2ccc([C@H](O)C(F)(F)F)c(OC)c12 [Example 19]
label 0

Does this compound meet the criterion IC50 < 0.02 µM? CNC(=O)c1cnc(NC(=O)C2CC2)cc1Nc1nn(C)c2ccc([C@H](O)C(F)(F)F)c(OC)c12 [Example 189]
label 1

Does this compound meet the criterion IC50 < 0.02 µM? [2H]C([2H])([2H])NC(=O)c1cnc(NC(=O)C2CC2)cc1Nc1cnn2ccc([C@@H](O)C(F)(F)F)c(OC)c12 [Example 7B]
label 1

----------
assay: Brain pharmacokinetic studies in rats; type: in vivo, Sprague-Dawley rats; conditions: brain, rats, iv, 3 mg/kg, solution
Measured AUC, listed per entry.
Report only the number, with the unit ng·h/g understood.

Answered examples (3):
| MOLECULE | AUC (ng·h/g) |
| --- | --- |
| COC(=O)c1cnc(NC(=O)C2CC2)cc1Nc1nn(C)c2ccc([C@H](O)C(F)(F)F)c(OC)c12 [Example 48A] | 288 |
| COC(=O)c1cnc(NC(=O)C2CC2)cc1Nc1cnn2ccc([C@H](OC)C(F)(F)F)c(OC)c12 [Example 42] | 1286 |
| COC(=O)c1cnc(NC(=O)C2CC2)cc1Nc1cnn2ccc([C@H](O)C(F)(F)F)c(OC)c12 [Example 26] | 140 |

Now for the molecule whose AUC we want.
What does the data say about its AUC? Entry: COC(=O)c1cnc(NC(=O)C2CC2)cc1Nc1nn(C)c2ccc([C@H](OC)C(F)(F)F)c(OC)c12 [Example 45B]
1235

----------
experiment: Pharmacokinetic study in rats; type: in vivo; conditions: rat, plasma; Sprague-Dawley rats, oral, 5 mg/kg, solution
VALUE KIND: half-life (h)
Report only the number, with the unit h understood.

What does the data say about its half-life? Entry: [2H]C([2H])([2H])NC(=O)c1cnc(NC(=O)C2CC2)cc1Nc1nn(C)c2ccc([C@H](OC([2H])([2H])[2H])C(F)(F)F)c(OC)c12 [Example 55A]
2.67

----------
test: Kinetic solubility; format: physicochemical; settings: phosphate buffer, pH 7.4, aqueous buffer, kinetic from dmso stock, 100 mM pH 7.4 phosphate buffer, 1% DMSO, room temperature, read-out: Kinetics Solubility_PBS7.4
VALUE KIND: solubility kinetic at 2 h (µM)
Report only the number, with the unit µM understood.

Answered examples (2):
| MOLECULE | UOM | solubility kinetic at 2 h |
| --- | --- | --- |
| [2H]C([2H])([2H])NC(=O)c1cnc(NC(=O)C2CC2)cc1Nc1nn(C)c2ccc(C(O)C(F)(F)F)c(OC)c12 (stereo not drawn) | µM | 83 |
| [2H]C([2H])([2H])NC(=O)c1cnc(NC(=O)C2CC2)cc1Nc1cnn2ccc(C(C)C(F)(F)F)c(OC)c12 (single isomer, unassigned) [Example 9B] | µM | 45.4 |

Now for the molecule whose solubility kinetic at 2 h we want.
What does the data say about its solubility kinetic at 2 h? Entry: [2H]C([2H])([2H])NC(=O)c1cnc(NC(=O)C2CC2)cc1Nc1nn(C)c2ccc([C@H](O)C(F)(F)F)c(OC)c12 [Example 49A]
45.5

----------
Measured pIC50, listed per entry.
molecular target: JAK1-JH2 domain (Homo sapiens); construct: JAK1-JH2 domain or TYK2-JH2 domain enzyme in assay buffer; test: Binding activity test for JH2 domain of JAK1 (Tb-antibody/tracer FRET); details: read-out: JAK1 JH2 Binding IC50; JH2 domain enzyme; 60 min at 25°C, then 4°C overnight
pIC50: −log10 of the molar value.

Answered examples (2):
| COMPOUND | pIC50 |
| --- | --- |
| COC(=O)c1cnc(NC(=O)[C@@H]2C[C@@H]2F)cc1Nc1nn(C)c2ccc(C(O)C(F)(F)F)c(OC)c12 (single isomer, unassigned) [Example 122A] | 7.81 |
| [2H]C([2H])([2H])NC(=O)c1cnc(NC(=O)[C@@H]2C[C@@H]2F)cc1Nc1cnn2cnc(C(O)C(F)(F)F)c(OC)c12 (stereo partly drawn) [Example 39] | < 6.53 |

Now for the compound whose pIC50 we want.
What does the data say about its pIC50? Entry: COC(=O)c1c(Nc2nn(C)c3ccc(C(OC)C(F)(F)F)c(OC)c23)cc(NC(=O)C2CC2)nc1N (stereo not drawn) [Example 96]
< 6.53

----------
Measured IC50, listed per entry.
target: JAK1-JH2 domain (Homo sapiens, UniProt P23458); construct: JAK1-JH2 domain or TYK2-JH2 domain enzyme in assay buffer; experiment: Binding activity test for JH2 domain of JAK1 (Tb-antibody/tracer FRET); conditions: JH2 domain enzyme; 60 min at 25°C, then 4°C overnight; read-out: JAK1 JH2 Binding IC50
Please answer using the number first and the unit second.

| COMPOUND | IC50 |
| --- | --- |
| [2H]C([2H])([2H])NC(=O)c1nnc(NC(=O)C2CC2)cc1Nc1nn(C)c2ccc([C@@H](OC)C(F)(F)F)c(OC)c12 [Example 51A] | 6.29 nM |
| COC(=O)c1cnc(NC(=O)C2CC2)cc1Nc1nsc2ccc(C(OC)C(F)(F)F)c(OC)c12 (single isomer, unassigned) [Example 67B] | 119 nM |

Now for the compound whose IC50 we want.
What does the data say about its IC50? Entry: COC(=O)c1cnc(NC(=O)C2CC2)cc1Nc1nn(C)c2ccc([C@H](OC)C(F)(F)F)c(OC)c12 [Example 45B]
24.5 nM
